GI50 listing for selected compounds.
System: SF-295
Assay: NCI tumour cell line growth inhibition, 48 h
The source made the active and inactive calls. Rule as the data show it: active = GI50 up to about 1.1 µM and inactive = higher.
TEST READOUT: GI50

>>> print(df.to_string())
                                   compound                  val
0       COc1ccc(-c2c(C#N)c(N)nc(S)c2C#N)cc1   27.6 µM (inactive)
1  OC1(c2ccccc2)c2ccccc2N=C2NCCN21 (stereo unspecified)   57.5 µM (inactive)
2  Cc1ccc2oc(=O)c(C(=O)Nc3nc(C45CC6CC(CC(C6)C4)C5)cs3)cc2c1  > 100 µM (inactive)
3                 C/C(=N/NC(N)=S)c1ccc[nH]1  > 100 µM (inactive)
4  OC12CC3c4ccccc4NC3C3Oc4cccc5c4C31CCN(CC1CC1)C2C5 (stereo unspecified)   30.9 µM (inactive)
5  CCCCCC(CO)C(O)(C(F)(F)F)C(F)(F)F (stereo unspecified)   > 10 µM (inactive)

The reported numbers originate from ChEMBL document CHEMBL1201862.
